Read-out record for NCI-H460 lung: GI50

SUBSTANCE_SMILES	GI50
CCCN1CCC(Oc2cc(Nc3nc(Nc4cccc(F)c4C(N)=O)c4cc[nH]c4n3)c(OC)cc2Cl)CC1	1.45 µM
Oc1ccc(CCNc2nc3ccccc3c3[nH]c4ccccc4c23)cc1O	2.17 µM
CCCCCCCCCCCC1=NC(C)(C)CN1C(C)C	3.22 µM
COc1ccc(-c2nn3ncccc3c2-c2ccnc(Nc3ccc(F)c(F)c3)n2)cc1	7.4 µM
COc1ccc2c(c1[N+](=O)[O-])CC[C@@H]1[C@@H]2CC[C@]2(C)C(=O)CC[C@@H]12	> 756 µM
N#CSc1c[nH]c2ccc(/C=C/C(=O)/C=C(O)/C=C/c3ccc4[nH]cc(SC#N)c4c3)cc12	3.01 µM
COc1ccc2c(c1)c(-c1ccc(-c3cn(C)c4ccc(OC)cc34)s1)cn2C	> 100 µM
Nc1nc(N)c2cc(S(=O)(=O)c3cccc(C(F)(F)F)c3)ccc2n1	0.575 µM
COc1cc2c(cc1OCCCCCOc1ccc(-c3nc4ccccc4s3)cc1)N=C[C@@H]1CCCN1C2=O	1.27 µM
CN1CCN(c2ccc3nc(-c4[nH]ncc4Nc4ncnc5[nH]ccc45)[nH]c3c2)CC1	2.68 µM
CCOC(=O)c1sc2nc(=S)[nH]c(NC(N)=S)c2c1C	23.2 µM
C=CCn1c(SCC(=O)Nc2ccc(C(=O)/C=C/c3cc(OC)c(OC)c(OC)c3)cc2)nnc1-c1cc(OC)c(OC)c(OC)c1	3.76 µM
Cc1ccc(NC(=O)c2ccoc2)cc1-c1ccc(C(=O)NCC2CC2)cc1	> 24 µM

* * *

# System: RXF 393 renal
# PROCEDURE_SUMMARY: NCI tumour cell line growth inhibition, 48 h; in the data active = GI50 below about 0.43 µM; inactive = the rest
Outcomes: 1 (yes) = active, 0 (no) = inactive

SUBSTANCE_SMILES	GROUP
CCCCCOC(=O)c1c(C)[nH]c(/C=C2\N=C(c3ccc[nH]3)C=C2OC)c1C	1 (yes)
O=c1[nH]c(=O)n(Cc2ccc(C34CC5CC(CC(C5)C3)C4)c(O)c2)cc1F	0 (no)
Cc1ccc(/C=C/C(=O)c2ccc(F)cc2)s1	0 (no)
C=C(C)[C@@H]1CC[C@]2(C(=O)OC)CC[C@]3(C)[C@H](CC[C@@H]4[C@@](C)(CCc5nn[nH]n5)[C@H](C(=C)C)CC[C@]43C)[C@@H]12	0 (no)

* * *

# System: SNB-75 CNS
# PROCEDURE_SUMMARY: NCI tumour cell line growth inhibition, 48 h; in the data active means GI50 below about 0.43 µM; inactive means the rest
Classes used: y (active), n (inactive)

SUBSTANCE_SMILES	GROUP
COc1cc2c(cc1OCCCCCOc1ccc(-c3nc4ccccc4s3)cc1)N=C[C@@H]1CCCN1C2=O	n
CCn1c(-c2nonc2N)nc2cnc(Oc3cccc(NC(=O)c4ccc(OCCN5CCOCC5)cc4)c3)cc21	y
COc1ccc2c(c1[N+](=O)[O-])CC[C@@H]1[C@@H]2CC[C@]2(C)C(=O)CC[C@@H]12	n

* * *

# System: NCI/ADR-RES ovarian
# PROCEDURE_SUMMARY: NCI tumour cell line growth inhibition, 48 h

MOLECULE	TGI
COc1ccc(-c2nn3ncccc3c2-c2ccnc(Nc3ccc(F)c(F)c3)n2)cc1	> 25 µM
CN1CCN(c2n[nH]c(=O)c3c2nnn3Cc2ccccc2)CC1	> 100 µM
CCCCCCc1cc2cc(C(=O)Nc3nc(C45CC6CC(CC(C6)C4)C5)cs3)c(=O)oc2cc1O	80.5 µM
Oc1ccc(CCNc2nc3ccccc3c3[nH]c4ccccc4c23)cc1O	32.2 µM
Cc1ccc2[nH]c3c(c2c1)C1CCC(C(C)(C)C)CC1C1C(=O)N(c2ccc(Oc4ccccc4)cc2)C(=O)C31 (stereo unspecified)	> 100 µM
Cc1cccc(-c2cc(=O)c3cccnc3[nH]2)c1	> 100 µM
O=c1[nH]nc(-c2ccc3ccccc3c2)[nH]1	> 100 µM
Cc1cc2c(cc1Cl)SSc1cc(Cl)c(C)cc1S(=O)(=O)Nc1nc(N)nn1C(O)n1nc(N)nc1NS2(=O)=O	> 10 µM
CCCSc1ccc2[nH]c(N3C(=O)/C(=C/c4ccc(O)c(OC)c4)N=C3c3ccccc3)cc2c1	> 100 µM
Cc1cc[c]([Sb]2[O]C(CO)C(C(O)C(O)C(=O)O)[O]2)cc1 (stereo unspecified)	> 100 µM
O=c1oc2ccccc2cc1P(=O)(O)O	> 100 µM
COc1ccc2c(c1[N+](=O)[O-])CC[C@@H]1[C@@H]2CC[C@]2(C)C(=O)CC[C@@H]12	> 1000 µM
CC(C)Cn1cnc2c(N)nc3ccccc3c21	> 100 µM
Clc1ccc2c(NC3CCC(NC4CCCCC4)CC3)ccnc2c1 (stereo unspecified)	30.4 µM
Cc1cc(NC(=O)NCCCOc2ccc(N3C(N)=NC(N)=NC3(C)C)cc2Cl)ccc1S(=O)(=O)F	> 100 µM
Cc1cc2c3c(c1)S(=O)(=O)c1cc(Cl)ccc1N3CCC2	> 100 µM
COc1cc2ncnc(Nc3cccc(Br)c3)c2cc1OC	23.9 µM
COc1ccc(-c2cc(=O)c3c(C)ccnc3[nH]2)cc1	> 100 µM
C[C@]12CC[C@H]3[C@@H](CCC4=CC(=O)CC[C@@]43C)[C@]1(O)CC[C@]2(O)C(=O)CO	> 100 µM
CCCCCCCCCCCC(c1ccccc1)[N+](C)(C)C (stereo unspecified)	> 100 µM
C[N+](C)(N)Cc1nc(-c2ccc(Cl)cc2)no1	> 100 µM
